List of Emax values.
Biological target: Adenosine receptor A3 (Homo sapiens) (UniProt P0DMS8)
Sequence (whole entry): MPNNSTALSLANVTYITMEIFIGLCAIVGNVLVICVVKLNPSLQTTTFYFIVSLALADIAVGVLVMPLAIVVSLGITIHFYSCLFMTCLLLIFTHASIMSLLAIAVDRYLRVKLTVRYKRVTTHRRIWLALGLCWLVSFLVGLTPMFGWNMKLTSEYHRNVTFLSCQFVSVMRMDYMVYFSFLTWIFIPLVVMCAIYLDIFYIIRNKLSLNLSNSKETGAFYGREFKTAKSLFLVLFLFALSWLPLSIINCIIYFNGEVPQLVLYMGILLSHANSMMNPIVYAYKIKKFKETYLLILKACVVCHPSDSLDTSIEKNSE
Assay: Agonist activity at human adenosine A3 receptor expressed in FlpIn-CHO cells assessed as increase in ERK1/2 phosphorylation after 5 mins by alphascreen assay relative to control
Format: cell-based

SMILES REPR | Emax / %
CNC(=O)[C@@]12C[C@@H]1[C@@H](n1cnc3c(NCc4cccc(Cl)c4)nc(C#Cc4ccc5ccc6cccc7ccc4c5c67)nc31)[C@H](O)[C@@H]2O | 107
CNC(=O)[C@@]12C[C@@H]1[C@@H](n1cnc3c(NCc4cccc(Cl)c4)nc(C#Cc4ccccc4)nc31)[C@H](O)[C@@H]2O | 88
CNC(=O)[C@@]12C[C@@H]1[C@@H](n1cnc3c(NCc4cccc(Cl)c4)nc(C#Cc4ccc(-c5ccccc5)cc4)nc31)[C@H](O)[C@@H]2O | 95
CNC(=O)[C@@]12C[C@@H]1[C@@H](n1cnc3c(N(C)c4cccc(Cl)c4)nc(Cl)nc31)[C@H](O)[C@@H]2O | 94
CNC(=O)[C@H]1O[C@@H](n2cnc3c(NCc4cccc(I)c4)ncnc32)[C@H](O)[C@@H]1O | 106
CNC(=O)[C@@]12C[C@@H]1[C@@H](n1cnc3c(NCc4cccc(Cl)c4)nc(C#Cc4ccc(F)c(F)c4)nc31)[C@H](O)[C@@H]2O | 106
CNC(=O)[C@@]12C[C@@H]1[C@@H](n1cnc3c(NCc4cccc(Cl)c4)nc(C#Cc4cc5cccc6ccc7cccc4c7c65)nc31)[C@H](O)[C@@H]2O | 112
